target-entity: T1, human CCR8 (human, UniProt P51685 1-355)
T1 construct: Native CCR8 on human PBMC (CCR8+ CD3+ or CCR8+ CD4+ lymphocytes); also called chemokine (C-C motif) receptor 8
T1 sequence (P51685 whole entry): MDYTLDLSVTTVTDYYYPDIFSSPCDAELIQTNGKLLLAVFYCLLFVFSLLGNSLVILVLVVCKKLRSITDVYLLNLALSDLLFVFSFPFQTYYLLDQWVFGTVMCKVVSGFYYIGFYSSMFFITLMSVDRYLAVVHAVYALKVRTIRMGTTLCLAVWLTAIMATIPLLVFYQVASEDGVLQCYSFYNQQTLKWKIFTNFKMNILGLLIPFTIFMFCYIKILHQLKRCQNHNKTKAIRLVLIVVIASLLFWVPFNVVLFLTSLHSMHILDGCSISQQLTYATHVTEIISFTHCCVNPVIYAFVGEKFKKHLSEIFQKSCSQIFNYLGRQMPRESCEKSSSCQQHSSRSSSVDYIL
protocol-description: flow blocking, PBMC CCR8+CD3+; competitor PE-AB10
Exam item: assign Yes to entries whose MFI is below 700 and No to entries at or above 700. Note that a value of exactly 700 receives No.

binder	class-label
AB6 (antibody, V domains shown, Hybridoma monoclonal; Same VH/VL entries as AB5; also called antibody 6; clone 6) VH: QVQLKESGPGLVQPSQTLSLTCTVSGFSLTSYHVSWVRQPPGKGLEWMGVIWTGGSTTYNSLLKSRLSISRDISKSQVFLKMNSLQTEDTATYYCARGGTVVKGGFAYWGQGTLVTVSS VL: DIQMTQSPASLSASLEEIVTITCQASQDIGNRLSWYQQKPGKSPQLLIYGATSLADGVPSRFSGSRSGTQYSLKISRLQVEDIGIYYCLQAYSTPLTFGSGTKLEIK	No
AB11 (antibody, V domains shown, Hybridoma monoclonal; also called antibody 11; clone 11) VH: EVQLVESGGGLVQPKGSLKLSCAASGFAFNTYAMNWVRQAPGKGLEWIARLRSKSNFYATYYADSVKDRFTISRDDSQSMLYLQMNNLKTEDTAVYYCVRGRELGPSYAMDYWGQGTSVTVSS VL: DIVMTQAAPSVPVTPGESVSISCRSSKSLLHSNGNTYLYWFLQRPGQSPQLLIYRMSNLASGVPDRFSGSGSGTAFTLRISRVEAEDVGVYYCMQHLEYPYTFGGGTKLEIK	Yes
AB13 (antibody, V domains shown, Hybridoma monoclonal; also called antibody 13; clone 13) VH: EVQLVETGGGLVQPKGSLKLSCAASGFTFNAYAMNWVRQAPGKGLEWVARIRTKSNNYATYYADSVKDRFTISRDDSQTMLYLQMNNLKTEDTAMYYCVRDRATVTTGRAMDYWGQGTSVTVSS VL: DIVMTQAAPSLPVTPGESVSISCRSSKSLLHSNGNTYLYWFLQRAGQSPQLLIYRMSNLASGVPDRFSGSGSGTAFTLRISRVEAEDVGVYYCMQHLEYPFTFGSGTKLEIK	No
AB10 (antibody, V domains shown, Hybridoma monoclonal; also called antibody 10; clone 10) VH: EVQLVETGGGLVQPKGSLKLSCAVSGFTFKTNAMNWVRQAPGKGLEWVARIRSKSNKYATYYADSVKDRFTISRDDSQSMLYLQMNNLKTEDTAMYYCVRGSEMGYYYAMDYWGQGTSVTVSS VL: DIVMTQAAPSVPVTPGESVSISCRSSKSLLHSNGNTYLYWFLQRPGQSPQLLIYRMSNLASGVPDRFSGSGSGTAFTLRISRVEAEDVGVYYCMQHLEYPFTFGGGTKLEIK	Yes
AB8 (antibody, V domains shown, Hybridoma monoclonal; also called antibody 8; clone 8) VH: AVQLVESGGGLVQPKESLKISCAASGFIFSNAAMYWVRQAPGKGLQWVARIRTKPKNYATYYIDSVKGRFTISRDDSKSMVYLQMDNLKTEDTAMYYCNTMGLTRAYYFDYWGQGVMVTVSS VL: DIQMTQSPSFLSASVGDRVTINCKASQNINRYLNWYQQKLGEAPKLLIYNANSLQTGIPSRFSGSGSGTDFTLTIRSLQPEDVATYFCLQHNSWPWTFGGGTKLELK	Yes
